Item-by-item account of pest or weed control at 250 g/ha
Tested on: Amaranthus retroflexus
assay remarks: Glasshouse assay for herbicidal activity, post-emergence, AMARE
Format: in vivo
condition description: Amaranthus retroflexus, 312 h, 250 g/ha, visual 13 days after application, 100%=total damage, read-out: Percentage phytotoxicity AMARE
observed property: pest or weed control at 250 g/ha (%)

compound	target or test system	uom	reported
CC#Cc1cc(OC)c(C2C(=O)CCCC2=O)c(OC)c1	Amaranthus retroflexus	%	30
CC#Cc1ccc(C2=C(OC(=O)SC(C)C)C3CCC(C3)C2=O)c(OC)c1 (stereo not drawn)	Amaranthus retroflexus	%	10
CC#Cc1ccc(C2=C(OC(C)=O)C3CCC(C3)C2=O)c(OC)c1 (stereo not drawn) [Compound P1]	Amaranthus retroflexus	%	20
CC#Cc1ccc(C2C(=O)C3CCC(C3)C2=O)c(OCC)c1 (stereo not drawn)	Amaranthus retroflexus	%	0
CC#Cc1ccc(C2=C(OS(C)(=O)=O)C3CCC(C3)C2=O)c(OC)c1 (stereo not drawn)	Amaranthus retroflexus	%	40
CC#Cc1ccc(C2C(=O)CCCC2=O)c(OC)c1	Amaranthus retroflexus	%	20
CC#Cc1ccc(C2=C(OC(=O)C(C)(C)C)C3CCC(C3)C2=O)c(OC)c1 (stereo not drawn)	Amaranthus retroflexus	%	20
CC#Cc1ccc(C2=C(OC(=O)CC)C3CCC(C3)C2=O)c(OC)c1 (stereo not drawn)	Amaranthus retroflexus	%	40
CC#Cc1ccc(C2C(=O)C3CCC(C3)C2=O)c(OCC(F)(F)F)c1 (stereo not drawn)	Amaranthus retroflexus	%	0
CC#Cc1ccc(C2=C(OC(=O)OCC)C3CCC(C3)C2=O)c(OC)c1 (stereo not drawn)	Amaranthus retroflexus	%	20
CC#Cc1ccc(C2=C(OCOC)C3CCC(C3)C2=O)c(OC)c1 (stereo not drawn)	Amaranthus retroflexus	%	0
CC#Cc1ccc(C2=C(OC(=O)SCC)C3CCC(C3)C2=O)c(OC)c1 (stereo not drawn)	Amaranthus retroflexus	%	20
CC#Cc1ccc(C2C(=O)C3CCC(C3)C2=O)c(OC)c1 (stereo not drawn)	Amaranthus retroflexus	%	50
CC#Cc1ccc(C2=C(OC(=O)c3ccccc3)C3CCC(C3)C2=O)c(OC)c1 (stereo not drawn)	Amaranthus retroflexus	%	20
CC#Cc1ccc(C2C(=O)C3CCC(C3)C2=O)c(OCCC)c1 (stereo not drawn)	Amaranthus retroflexus	%	0
CC#Cc1ccc(C2=C(OC(=O)Sc3ccccc3)C3CCC(C3)C2=O)c(OC)c1 (stereo not drawn)	Amaranthus retroflexus	%	60
CC#Cc1ccc(C2=C(OC(=O)OC)C3CCC(C3)C2=O)c(OC)c1 (stereo not drawn)	Amaranthus retroflexus	%	30
CC#Cc1ccc(C2=C(OC(=O)c3ccc(F)cc3)C3CCC(C3)C2=O)c(OC)c1 (stereo not drawn)	Amaranthus retroflexus	%	30

Values compiled from patent US10662138B2.
